These entries and their values trace back to patent US5021439A.

Target: Kainate-type receptor
Experiment: Binding assay of Kainate-type receptor (3H-kainic acid) on rat forebrain crude synaptic membrane
Settings: 2 nM 3H-Kainic acid, pH 7.1, 0° C., 90 min
RESULT_TYPE: Affinity to Kainate-type receptor (3H-KA), IC50

[[record]]
compound = "Cc1[nH]oc(=O)c1[C@@H](N)C(=O)O [Compound 155]"
result = "> 100 µM"

[[record]]
compound = "CC(C)c1[nH]oc(=O)c1[C@@H](N)C(=O)O [Compound 182]"
result = "> 100 µM"

[[record]]
compound = "N[C@@H](C(=O)O)c1c[nH]oc1=O [Compound 149]"
result = "> 100 µM"

